The origin of these recorded values is the supplement of paper PMC13380429.

# System: Vero E6 infected with SARS-CoV-2
# procedure-details: inhibition of SARS-CoV-2 cytopathic effect; higher = more antiviral protection, active = above 15
# test-conditions: 10000 nM; 48 h
measured-parameter: inhibition of SARS-CoV-2 cytopathic effect (%)
Give the number; % is assumed, so skip it.

- compound: "N#C/C(=C1/SCC(c2ccccc2Cl)S1)n1ccnc1 (stereo unspecified) [lanoconazole]"
  experimental-value: 0.48
- compound: "O=C(O)c1ccc(OCCn2ccnc2)cc1 [dazoxiben]"
  experimental-value: -0.65
- compound: "Cc1nc[nH]c1CCN [4-methylhistamine]"
  experimental-value: 0
- compound: "OC(CN1CCN(c2cccc(Cl)c2)CC1)C(c1ccccc1)c1ccccc1 (stereo unspecified)"
  experimental-value: 3.63
- compound: "CS(=O)(=O)c1ccc([C@@H](O)[C@@H](CO)NC(=O)C(Cl)Cl)cc1 [thiamphenicol]"
  experimental-value: -2.23
- compound: "Cc1ccc(CC2(O)CCN(CCOc3ccc(O)cc3)CC2)cc1"
  experimental-value: 1.64

Prompt: API: value(readout= inhibition of SARS-CoV-2 cytopathic effect, system= Vero E6 infected with SARS-CoV-2, query= CNC(=O)[C@H](Cc1ccccc1)NC(=O)[C@H](CC(C)C)[C@H](CSc1cccs1)C(=O)NO [batimastat] )
Completion: -12.5

Prompt: API: value(readout=inhibition of SARS-CoV-2 cytopathic effect, system=Vero E6 infected with SARS-CoV-2) for record CC(C)(O)C(=O)N1CCN(c2ccc(C(F)(F)F)c(C3=C(c4c[nH]c5ccccc45)C(=O)NC3=O)c2)CC1
Completion: 4.03

Prompt: Lab note: need inhibition of SARS-CoV-2 cytopathic effect for O=C(O)CCc1c(C(=O)O)[nH]c2cc(Cl)cc(Cl)c12 on Vero E6 infected with SARS-CoV-2, anyone have it?
Completion: 0.81

Prompt: # returns recorded inhibition of SARS-CoV-2 cytopathic effect (system: Vero E6 infected with SARS-CoV-2) for COc1ccc(CN(CCN(C)C)c2ncccn2)cc1 [thonzylamine]
Completion: -0.17

Prompt: Notebook: pull reported inhibition of SARS-CoV-2 cytopathic effect for Vero E6 infected with SARS-CoV-2, entry Cc1cc(O)ccc1Cl [chlorocresol]
Completion: 1.88

Prompt: What reported inhibition of SARS-CoV-2 cytopathic effect corresponds to O=C(/C=C/c1c(C(=O)O)[nH]c2cc(Cl)cc(Cl)c12)Nc1ccccc1 [gavestinel] on Vero E6 infected with SARS-CoV-2?
Completion: -3.95

Prompt: Give recorded inhibition of SARS-CoV-2 cytopathic effect with Vero E6 infected with SARS-CoV-2 for the following compound: CCCC(O)C(CC)CO (stereo unspecified) [2-ethyl-1,3-hexanediol]
Completion: 0.65

Prompt: Look up inhibition of SARS-CoV-2 cytopathic effect with Vero E6 infected with SARS-CoV-2 for this compound: CC(C)(C)c1cc(C(=O)/C(C#N)=N/Nc2cccc(Cl)c2)no1
Completion: 11.6

Prompt: Form entry - test system: Vero E6 infected with SARS-CoV-2; read-out: inhibition of SARS-CoV-2 cytopathic effect; compound: O=CN1CCC(C(=O)NCCN2CCC(=C3c4ccccc4C=Cc4ccccc43)CC2)CC1
Completion: 1.23

Prompt: Notebook: pull reported inhibition of SARS-CoV-2 cytopathic effect for Vero E6 infected with SARS-CoV-2, entry CC(C)(C)C(=O)OCOP(=O)(COCCn1cnc2c(N)ncnc21)OCOC(=O)C(C)(C)C [adefovir-dipivoxil]
Completion: -3.69

Prompt: Field: inhibition of SARS-CoV-2 cytopathic effect (Vero E6 infected with SARS-CoV-2). Entry: C[C@H](Cc1cc2c(c(C(N)=O)c1)N(CCCO)CC2)NCCOc1ccccc1OCC(F)(F)F [silodosin]
Completion: 3.11

Prompt: Missing value: inhibition of SARS-CoV-2 cytopathic effect, Vero E6 infected with SARS-CoV-2, entry CN1CCN(c2nc3ccccc3nc2Cl)CC1 . Fill in?
Completion: 5.89

Prompt: # value lookup — system Vero E6 infected with SARS-CoV-2, readout inhibition of SARS-CoV-2 cytopathic effect, item COc1ccccc1N1CCN(CCCCN2C(=O)c3ccccc3C2=O)CC1
Completion: 4.74

Prompt: Lookup: inhibition of SARS-CoV-2 cytopathic effect / Vero E6 infected with SARS-CoV-2 / COC(=O)C1=CO[C@@H](O[C@@H]2O[C@H](CO)[C@@H](O)[C@H](O)[C@H]2O)[C@@H]2C(CO)=CC[C@H]12 [geniposide]
Completion: -18.6

Prompt: // map NC(=O)N1C(=O)/C(=C(\O)c2cccs2)c2cc(Cl)ccc21 [tenidap] to recorded inhibition of SARS-CoV-2 cytopathic effect (system: Vero E6 infected with SARS-CoV-2)
Completion: -5.52

Prompt: Please provide the recorded inhibition of SARS-CoV-2 cytopathic effect for CCC[C@H]1C(=O)N2C(N(C)C)=Nc3ccc(C)cc3N2C1=O [azapropazone] , tested on Vero E6 infected with SARS-CoV-2.
Completion: -3.61

Prompt: Item: CCCCOc1c(C(=O)c2c(F)cc(C)cc2F)c[nH]c2nncc1-2 Test system: Vero E6 infected with SARS-CoV-2 Read-out: inhibition of SARS-CoV-2 cytopathic effect Value: ?
Completion: -3.38

Prompt: Enter reported inhibition of SARS-CoV-2 cytopathic effect observed with Vero E6 infected with SARS-CoV-2 for O=C(NC1CCNCC1)[C@@H]1CC[C@@H]2CN1C(=O)N2OS(=O)(=O)O [relebactam]
Completion: -1.06

Prompt: Please state recorded inhibition of SARS-CoV-2 cytopathic effect (tested on Vero E6 infected with SARS-CoV-2) of CC(COc1ccccc1)N(CCCl)Cc1ccccc1 (stereo unspecified) [phenoxybenzamine]
Completion: -0.17

Prompt: Find inhibition of SARS-CoV-2 cytopathic effect (Vero E6 infected with SARS-CoV-2) for the entry O=C(OC[C@H]1O[C@@H](OC(=O)c2cc(O)c(O)c(OC(=O)c3cc(O)c(O)c(O)c3)c2)[C@H](OC(=O)c2cc(O)c(O)c(OC(=O)c3cc(O)c(O)c(O)c3)c2)[C@@H](OC(=O)c2cc(O)c(O)c(OC(=O)c3cc(O)c(O)c(O)c3)c2)[C@@H]1OC(=O)c1cc(O)c(O)c(OC(=O)c2cc(O)c(O)c(O)c2)c1)c1cc(O)c(O)c(OC(=O)c2cc(O)c(O)c(O)c2)c1 [tannic-acid]
Completion: -6.77

Prompt: Query for Vero E6 infected with SARS-CoV-2: what inhibition of SARS-CoV-2 cytopathic effect does the record show for Cn1ccc2cc(NC(=O)Nc3cccnc3)ccc21 ?
Completion: 1.94

Prompt: Record CCOC(=O)c1ccccc1OC(N)=O [ethyl-2-(carbamoyloxy)benzoate] : what is its inhibition of SARS-CoV-2 cytopathic effect with Vero E6 infected with SARS-CoV-2?
Completion: -3.35
